Measured growth accompanies every entry in the list below.
system: SW-620 colon; assay: NCI-60 one-dose screen, 48 h (100 = growth as untreated, 0 = no growth, -100 = all killed); details: 10 µM unless noted
Compounds without any hit were thinned out: in the full panel of roughly 83,000, 20% have a hit.
Assay metric: growth (%)

{"columns": ["Molecule", "Assay metric", "Quantity unit", "Reported measurement"],
 "data": [
  ["COc1ccc(/C=C/c2nc(N3CCOCC3)c3nc(Cl)c(Cl)cc3n2)cc1OC", "growth", "%", 109],
  ["COc1ccc(/C=C/c2cc(N3CCOCC3)c3cc(F)c(F)cc3n2)cc1OC", "growth", "%", 45.8],
  ["O=c1[nH]c(-c2cn(-c3ccc(Cl)cc3)nn2)nc2ccccc12", "growth", "%", 94.4],
  ["Nc1nc(-c2cc3ccccc3o2)cc(=O)c(=O)[nH]1", "growth", "%", 102],
  ["C/C1=C\\CCC2(C)OC2CC2CCC(C)(O)C(CC1)C2(C)C (stereo not drawn)", "growth", "%", 97.1],
  ["CC(C)(C)c1cc(-c2nc3ccc(N4CCN(CCO)CC4)cc3[nH]2)cc(C(C)(C)C)c1O", "growth", "%", 9.88],
  ["c1ccn2nnnc2c1", "growth", "%", 106],
  ["COc1ccc(N=C2NN=C(c3ccc(F)cc3)CS2)cc1OC", "growth", "%", 98.6],
  ["Nc1c(C(=O)c2ccc(F)cc2)sc2nc3c(cc12)CCCC3", "growth", "%", 81],
  ["Nc1nc(-c2ccccc2)cs1", "growth", "%", 108],
  ["COc1cc(C2C=C(C)N=C3SC=CN32)cc(OC)c1OC (stereo not drawn)", "growth", "%", 111],
  ["Cc1ccc(S(=O)(=O)OCC(=O)Nc2ccc(C(=O)O)c(O)c2)cc1", "growth", "%", 105],
  ["Cc1cc(-c2ccccc2)c(C)n1Cc1ccc(Cl)cc1", "growth", "%", 22.7],
  ["O=S(=O)(NCCNc1cc(-c2cn(-c3ccccc3)nc2-c2ccccc2)ccn1)c1ccc(F)cc1", "growth", "%", 95.4],
  ["Clc1ccc([I+]c2ccc(Cl)cc2Cl)c(Cl)c1", "growth", "%", -43.4],
  ["CC(=O)OC[Si](C)(C)c1ccccc1", "growth", "%", 101],
  ["O=C(Nc1cc(C(F)(F)F)cc(C(F)(F)F)c1)Nc1ccc(OCc2nnc(-c3ccc(Cl)cc3)o2)c(F)c1", "growth", "%", 22.8],
  ["Nc1c(C(=O)Nc2ccccc2)sc2nc3c(cc12)CN(Cc1ccccc1)CC3", "growth", "%", 76.9],
  ["COC1=CC(c2ccc[nH]2)=N/C1=C\\c1[nH]c(C)c(C(=O)CCCCC(=O)NCc2ccccc2)c1C", "growth", "%", -96.7],
  ["CCCCCCc1nc2c(c(C)nn2-c2ccccc2)c2c1CCCCC2", "growth", "%", 101],
  ["CCC(=O)Oc1cc(/C=C/C(=O)O[C@H]2C[C@H]3CN4CCc5c([nH]c6cc(OC)ccc56)[C@@H]4C[C@@H]3[C@@H](C(=O)OC)[C@@H]2OC)ccc1OC", "growth", "%", 83],
  ["CCC1CCc2nc3sc(C(=O)Nc4ccccc4F)c(N)c3cc2C1 (stereo not drawn)", "growth", "%", 36.4],
  ["COc1ccc(C2NC3=C(CCCC3)C(C#N)(C#N)C2(C#N)C#N)cc1 (stereo not drawn)", "growth", "%", 48.2],
  ["CCNc1nc(N2CC(=O)Nc3cc(OC)ccc32)c2ccccc2n1", "growth", "%", 21.5],
  ["NS(=O)(=O)c1ccc(CN2C(=O)c3cccc4cccc(c34)C2=O)cc1", "growth", "%", 104],
  ["Nc1nc(Cl)c2c(ncn2Cc2ccc(CCl)cc2)n1", "growth", "%", 93.3],
  ["CN(C)c1ccc(C2CC(c3ccccc3)=NN2/C=C2\\SC(=O)NC2=O)cc1 (stereo not drawn)", "growth", "%", 83.9],
  ["CCCCCCCC/C=C\\CCCCCCCCOc1ccccc1CCOP(=O)(O)OCC[N+](C)(C)C", "growth", "%", 67.8],
  ["CCN(Cc1ccc(CN(CC)C(=O)C(Cl)(Cl)Cl)cc1)C(=O)C(Cl)(Cl)Cl", "growth", "%", 89],
  ["CCC(c1cccc(Br)c1)C(C(=O)O)c1ccc(OC)cc1 (stereo not drawn)", "growth", "%", 93.2],
  ["Cn1cc(C=O)c2ccccc21", "growth", "%", 95.1],
  ["COc1cccc(-n2cc(-c3nc(Cl)c4ccccc4n3)nn2)c1", "growth", "%", 110],
  ["COc1cc(-c2nc(-c3nc4ccccc4[nH]3)cc3c2[nH]c2ccccc23)cc(OC)c1OC", "growth", "%", 56.5],
  ["Clc1ccc2c(c1)NC1(CCSc3ccccc31)n1nccc1-2 (stereo not drawn)", "growth", "%", 102],
  ["O=C(O)c1cccc([N+](=O)[O-])c1/C=C/c1ccccc1", "growth", "%", 96.7],
  ["CC1CCN(C(=O)CSc2nc3sc4c(c3c(=O)[nH]2)CCCC4)CC1", "growth", "%", 108],
  ["O=C(N/N=C/c1c(Cl)cccc1Cl)c1ccccc1Nc1ccnc(C(F)(F)F)c1", "growth", "%", 86.3],
  ["COc1cc(C(=O)CCCl)ccc1O", "growth", "%", 103],
  ["CCn1cc(C(=O)O)c(=O)c2cc(F)c(N3CCN(S(=O)(=O)c4cccc5ccccc45)CC3)cc21", "growth", "%", 22.8],
  ["COC(=O)c1cc(-c2cccs2)c(C#N)c(N)c1C#N", "growth", "%", 102],
  ["Cc1nc2scc(-c3ccccc3)n2c(=O)c1CCO", "growth", "%", 101],
  ["Cc1ccc(Oc2nc3ccccc3cc2-c2nnc(Cn3c(COc4ccccc4)nc4ccccc43)o2)cc1", "growth", "%", 18.1],
  ["COc1ccc(Cn2cc(COc3cc(/C=C/C(=O)c4cc(OC)c(OC)c(OC)c4)ccc3OC)nn2)cc1", "growth", "%", 19.8]
]}

The reported numbers originate from PubChem BioAssay (NCI).
